# Test system: MS2 coat protein
# PROTOCOL: apparent KD of MS2 coat protein; designed switch direction (-1 OFF switch, 1 ON switch): 1; higher = weaker reporter binding
# CONDITIONS USED: Eterna round: R98; input ligand: FMN 200 uM
Please use true whenever apparent KD of MS2 coat protein is not below 100 nM, and false whenever it is.

Could you verify whether the entry UCACUCACGUUAGGAUAUGGAUCGGAAAACGAUCCAGAAGGAACCUGCAAACCUGAGGAACACCCAGGUUCCAAUAACGAGUGA [SameSame 8 - Jieux - Same State NG 1] shows apparent KD of MS2 coat protein of no less than 100 nM? true

Is apparent KD of MS2 coat protein at least 100 nM? Consider UAUAUAUAUUGAGGAUAUGCACAGGAUCACCGUGUAGAAGGCAUCAGGGAGAAGGUGCAGAGGAUCACCCUGUAAGGAUAUCAU [pwkr2 ssNG1 DX.1] true

Would you say UAUUUAUGGUGAGGAUAUGCAAAGGAUCACCUUGUAGAAGGCAUCAGGUAGAAGGUGCAGAGGAUCACCCUGUAAGGAUAUAUC [pwkr2 ssNG1 DX.22] shows apparent KD of MS2 coat protein at minimum 100 nM? false

Can UCCGAUGUACAUGAGGAUCACCCAUGUCAUAUGCCCGUGACACAGGAUAUCCAGGGUAGGCCAAAGGAGAAGGGUGAUCCGCGG [Lelete] be said to have apparent KD of MS2 coat protein at or above 100 nM? true

Decide: is the reported value of apparent KD of MS2 coat protein for UAGUGUUCUCGAGGAUAUGGGUUCCGUUUUAGCCCAGAAGGCGAACAUGAGGAUCACCCAUGUAUGAAUACACAGCAGAAUUGU [Teedri] equal to or greater than 100 nM? true

Quick check, apparent KD of MS2 coat protein >= 100 nM? GUAACAUGAGGAUCACCCAUGUCGUGCUAGAUGAGUUCUGGUGAGGAUAUACAUGGUAAAUAACUGUAGAAGGCACUGGGUACA [SameState #67 NG3] false

---

# Tested on: MS2 coat protein
# PROTOCOL: apparent KD of MS2 coat protein; higher = weaker reporter binding
# CONDITIONS USED: Eterna round: R107; input ligand: tryptophan 2.4 mM
READOUT LABEL: apparent KD of MS2 coat protein (µM)
Enter your answer as a number in µM; do not include the unit.

Recorded apparent KD of MS2 coat protein (sequence AGACAUGAGGAUCACCCAUGUAGUACGGAUACCAGAUCCAGAUGUAUCCCUUGGCAGCUGUGGUACAGCGUUACAUCGCUCCUAG [Exclusion - Theophylline A (Freestyle 20)] ): 0.0158

For this sequence ( GGAUGCCACUAUGGAUAGCACGAUGCCGAUACCAGCUAGGAAACUAGCCCUUGGCAGCGGAACAUGAGGAUCACCCAUGUAUCCU [EThA NP+V+V2 #8] ), measured apparent KD of MS2 coat protein is 0.0216

In plain terms, UGGCGAGAAGGAAGGAGCGUCAGCUGAGUUACAUGAGGAUCACCCAUGUUGCACAUAGUGUGACAGGUAGGUCGCCUUCUGCCCU [SS-ArgB19] has a documented apparent KD of MS2 coat protein of 0.0376

Item: UUGUGUUUAUUGGUUUAGCUAUUAUGGUUGCGAGGACCGGUACGGCCGCCACUCGAUGGAACAUGAGGAUCACCCAUGUGAGGAA [JR_ExcTryptoA_Sub013] | apparent KD of MS2 coat protein: 0.0221

For UACUUGCUGACGGCCGCCACUAGAACAUGAGGAUCACCCAUGUAUUCUAGUCGUCAUGGGUGGACUAGGACCGGGUCAGCAAGAU [(Trp1)-(Ms2)-(T)'-(M)'-(Trp2)_Design8] the sequence record lists apparent KD of MS2 coat protein as 0.192

Consider AACGUAUACAGAAGGAGCGUGAAUUAUUUUAUUUUUUUAUAAACAUGAGGAUCACCCAUGUCACAGGUAGGUCGCUGUAUUCGUA [JR_ExcArginiB_Sub018] . Its measured apparent KD of MS2 coat protein is 0.0192

---

# Tested on: MS2 coat protein
# PROTOCOL: apparent KD of MS2 coat protein; designed switch direction (-1 OFF switch, 1 ON switch): -1; higher = weaker reporter binding
# CONDITIONS USED: input ligand: FMN 200 uM
Label rule, in plain words: apparent KD of MS2 coat protein of 50 nM and up is class 1, under 50 nM is class 0.

Does the reported apparent KD of MS2 coat protein for UCUUAGCAAGCAAAUGGGUACAUGAGGAUCACCCAUGUGCUCGUCUUAUAAGGUACUGUGACGAAAGUCACGGUACC [mod--Eli8] (Eterna round: R97, puzzle: Sensor, turn-off variant 1) fall at or above the 50 nM mark? class 0

Please check the record CAGUACUGAGGAUAUACAUGAGGAUCACCCAUGUCUUAAAAGUAGGAUACUACUAUUAGUAGAAGGCAGUACUG [Fiskers Ex 3 828 mod 24] (Eterna round: R96, puzzle: Exclusion 3) and state if its apparent KD of MS2 coat protein is at or above 50 nM. class 0

Has GCCGAAAGUGUGAGGAUAUACCUAUGGAAACAUAGGUAGAAGGCACAUGAGGAUCACCCAUGUGGGAAAACGGC [Mat - Exclusion 4 - Eli Mod - D29] (Eterna round: R97, puzzle: Brourd's mod of Exclusion 4) a recorded apparent KD of MS2 coat protein greater than or equal to 50 nM? class 1

Exam item: decide whether the reported apparent KD of MS2 coat protein for UUCACAUGGACAUAAGAUCACAUGAGGAUCACCCAUGUGAAUAACAAGCUUUUUGCUCGUCUUAUGUCCAAUAAUAA [Stov1/14-A1] (Eterna round: R97, puzzle: Sensor, turn-off variant 1) is at least 50 nM. class 0

Kindly determine if apparent KD of MS2 coat protein recorded for UUGCAGUCGUCAGGAUAUAGUAUUACGGCCUUUCAUUUCUUCAUACAUGAGGAUCACCCAUGUCGCUAGAAGGGAUUAUCGAUU [salish99_ExNG2_r04_106] (Eterna round: R96, puzzle: Exclusion NG 2) is above or exactly 50 nM. class 0

Given the entry UAUGGUUAAGUCAGGAUAUACAAAUAGAAAUCUGAGUAGAAGGGACAUGAGGAUCACCCAUGUAUGGUAGUGUU [Ex4 #57] (Eterna round: R97, puzzle: Brourd's mod of Exclusion 4) , answer whether its apparent KD of MS2 coat protein meets or surpasses 50 nM. class 1

Decide: apparent KD of MS2 coat protein of UUUGACUAAGGAUAUCCUUUUGACCACAUGAGGAUCACCCAUGUAUUCCACAAGUGCGAAGGAGAAGGUGGGAAGG [Eternabot (L2) Solution 28] (Eterna round: R97, puzzle: Exclusion 5) >= 50 nM? class 1

Exam item: decide whether the reported apparent KD of MS2 coat protein for GUUUGACAUGAGGAUCACCCAUGUAAGGAUAUACGAGUAGAUGAUAGAUAGAUAGUAUGUAGAAGGUACGUGUU [EX1 #61] (Eterna round: R97, puzzle: Exclusion 1) is at least 50 nM. class 1

---

# Test system: MS2 coat protein
# PROTOCOL: apparent KD of MS2 coat protein; higher = weaker reporter binding
# CONDITIONS USED: Eterna round: R101; input ligand: FMN 200 uM
Give measured apparent KD of MS2 coat protein for each item. Keep answers brief.
The figure you give is taken to be in nM; do not add the unit.

CAGUCGACCAUAACAAGGUCGACUGACUUCUGAGGAUCACCCAGAAGGCGUCACCUAAUAGGUGACGAGGAUAUGGAGUGAAAA [#SharedSequence IExNG# - 6] (puzzle (switch architecture): Inverted Exclusion NG 3) yielded apparent KD of MS2 coat protein of 75

Given item GGUCGACUUCAAGGAUAUGGACUGCAAAGCAGUCCAGAAGGUGAGGAUCACCCACCUACGGUCAGGAAACUGACCGAUCGACCA [#SharedSequence - ExNG1-4] (puzzle (switch architecture): Exclusion NG 1) , the value recorded as its apparent KD of MS2 coat protein is 12.3

For record UAAAUAAAUCCUAGAGGAUCACCCUAGGAUAUCACCGUCGAGGUGCCAUAAUGGCACCUCGACGGUGAGAAGGAGGUUGAUAAA [#SharedSequence - SLExNG3: 6] (puzzle (switch architecture): Small Loop Exclusion NG 3) the listed apparent KD of MS2 coat protein is 13

// apparent KD of MS2 coat protein lookup, sequence = GAGAAGAAGUUAGGAUAUUGGAUAGGGACGGAAUAAGAAGGAGCAAGGGACAUGAGGAUCACCCAUGUAGAAGAAGAGAUCCUC [X-NG1_50] (puzzle (switch architecture): Exclusion NG 1) , result: 10.9

---

# Test system: MS2 coat protein
# PROTOCOL: apparent KD of MS2 coat protein; designed switch direction (-1 OFF switch, 1 ON switch): -1; higher = weaker reporter binding
# CONDITIONS USED: input ligand: none
READOUT LABEL: apparent KD of MS2 coat protein (nM)
Numbers only here, please. The scale is nM.

The recorded apparent KD of MS2 coat protein with MS2 coat protein for AGCUUUUUGCUCGUCUUAUACAUGAGGAUCACCCAUGUAUUGGACCACAUCGAUAGAUGUGGGCCAAGAAGCAUGGG [Omdei Mir OFFv1 C2] (Eterna round: R97, puzzle: Sensor, turn-off variant 1) was 176

Lab note: sequence CGCCGAGUGUUAGGAUAUCACAAGCAUAAGCGGUGAGAAGGAACAUGAGGAUCACCCAUGUACUGUCCCAUCGGGACAGGUUUC [Ribeon] (Eterna round: R96, puzzle: Exclusion NG 1) tested on MS2 coat protein; recorded apparent KD of MS2 coat protein was 70.8

MS2 coat protein apparent KD of MS2 coat protein of AACCUACAUGAGGAUCACCCAUGUGAGGAUAUAUUGUUAUUUAUAUUAUUUUUUAGAGGUAGAAGGCGCGUGAU [JR_Exc1_Sub020] (Eterna round: R97, puzzle: Exclusion 1) is 17.3

Param item: UAUGUCGACAAGGAUAUUUGCGCAAACGACCACAAAGAAGGUGUCACAUGAGGAUCACCCAUGUGGUGUGGGCC [Eternabot (L1) Solution 83] (Eterna round: R97, puzzle: Exclusion 6) ; param system: MS2 coat protein; output apparent KD of MS2 coat protein: 209

For the sequence ACGCUCCGUGUAGGAUAUCGCCGUACCACUCGGCGAGAAGGACAUGAGGAUCACCCAUGUAUGUUAUUAUCACGUGUGGCGCGC [Design 51] (Eterna round: R96, puzzle: Exclusion NG 1) , the measured apparent KD of MS2 coat protein on MS2 coat protein was 19.9

Simply: UUGAUACAUGAGGAUCACCCAUGUUAGGAUAUACGCAUGCAUGCAUGCAUGCAUGCAAGUAGAAGGAACCAUGC [Design #1] (Eterna round: R97, puzzle: Exclusion 1) , MS2 coat protein, apparent KD of MS2 coat protein = 42

Lab note: sequence AGAUUAAUAGUAAGGAUAUGAUGCAGGAAACUGCGUCAGAAGGUACAUGAGGAUCACCCAUGUUAAACUAAUUU [Explosion 7 - Jieux - Brourd's mod of Exclusion 4] (Eterna round: R97, puzzle: Brourd's mod of Exclusion 4) tested on MS2 coat protein; recorded apparent KD of MS2 coat protein was 15

Given the sequence ACGCCAGGAGGAUAUGCAAUAAGUAACAUGAGGAUCACCCAUGUUCGGGCGAUCCUCGUGGCAGAAGGCCUAGCCG [Attira] (Eterna round: R97, puzzle: Exclusion 5) and test system MS2 coat protein, the measured apparent KD of MS2 coat protein is 24.4

Entry AGGUGUAGAGGAUAUCUAUCCUCGCACAUGAGGAUCACCCAUGUCCUGGUCACCAAGGACGGAGAAGGCUACACCA [Omei Ex5 D20] (Eterna round: R97, puzzle: Exclusion 5) ; assay system MS2 coat protein; apparent KD of MS2 coat protein recorded at 773

Short answer on MS2 coat protein for UCGUGAUUAGAGGAUAUAUUUUGAGUCAGAACAAUAGAAGGCUAAACAUGAGGAUCACCCAUGUAUAUGUGUAA [JR_Ex6_Sub062] (Eterna round: R97, puzzle: Exclusion 6) , apparent KD of MS2 coat protein: 46.7

# apparent KD of MS2 coat protein measured on MS2 coat protein for item ACAUGAGGAUCACCCAUGUCUGGCUGGUCCGUCUCGGCUGUCGAGGAUAUGGCUCGGUGUCCGCGCUAGAAGGCGGGAGCUGGA [Aenatbe mod 78] (Eterna round: R96, puzzle: Exclusion NG 3) = 68.2

Reported MS2 coat protein apparent KD of MS2 coat protein for item GUACGAGCCAAACACGUGGACAUGAGGAUCACCCAUGUGUCACCGGAUCCAUAGAGCUCGUCUUACCGACAAAAGCU [Eternabot (Original) Solution 17] (Eterna round: R97, puzzle: Sensor, turn-off variant 1) was 31.6

Lab note: sequence GGAGAGAAACAGGAUAUGGGAGGGAGGACCGGACCAGAAGGGUUGACAUGAGGAUCACCCAUGUAGAGAUCCUC [AK-MS2ROC-r4-exclusion6-6.7] (Eterna round: R97, puzzle: Exclusion 6) tested on MS2 coat protein; recorded apparent KD of MS2 coat protein was 1700

# apparent KD of MS2 coat protein measured on MS2 coat protein for item GUCAGCUCGUGAGGAUAUGAACAUGAGGAUCACCCAUGUAAGAUCAAGCUGCUUCGGCAGCAAGUUCAGAAGGUACGAGCUGAC [ENG2/10-C1] (Eterna round: R96, puzzle: Exclusion NG 2) = 130

Record for GGACAGGGAGGAUAUACUUGAGGAUCACCCAAGUCGUAUAAUCGAUGAACACGCCGAAGUAGAAGGCCCAAAAG [Esorgebi] (Eterna round: R97, puzzle: Exclusion 3) under target or system MS2 coat protein: apparent KD of MS2 coat protein reported as 131

// assay MS2 coat protein, entry AGAUCGUCAGGAUAUACAUGAGGAUCACCCAUGUAUAGUCUAAAUUUGACUAUAAAGUGUAGAAGGGACGAUCG [Exclusion 3 (MOD6 of #1 Marzena11)] (Eterna round: R97, puzzle: Exclusion 3) , apparent KD of MS2 coat protein value = 18.1

# lookup: GGUGUGAGGCAGGAUAUGCUAUAUGUUAGUAAUGCAGAAGGGUCUACAUGAGGAUCACCCAUGUGUGCGGUAGA [Ex6 #4] (Eterna round: R97, puzzle: Exclusion 6) on MS2 coat protein, apparent KD of MS2 coat protein = 139

Value sought: apparent KD of MS2 coat protein, system MS2 coat protein, item ACAGUACAUGAGGAUCACCCAUGUGAGGAUAUAGUAGUAUGGGAGACCAUACUAAAGACUAGAAGGCGCGGGCA [Exclusion 1 S1] (Eterna round: R97, puzzle: Exclusion 1) . Result: 67

Note to self: apparent KD of MS2 coat protein of GUAUAGUGAGGAUAUAUAUGCAGUAAACCUCAAAAGAUCGAACUUGAGGAUCACCCAAGUAGAAGGCGCGAGAU [JR_Ex2_Sub052] (Eterna round: R97, puzzle: Exclusion 2) with MS2 coat protein was 30.4

From: the supplement of paper PMC9170038
